Listing of entries alongside the reported Span.
# assayed_system: T1, human G-protein-coupled receptor family C group 5 member D (GPRC5D) (human, UniProt Q9NZD1 1-345)
# T1 construct: whole, on cells; also called human GPRC5D protein
# T1 sequence (Q9NZD1 whole entry): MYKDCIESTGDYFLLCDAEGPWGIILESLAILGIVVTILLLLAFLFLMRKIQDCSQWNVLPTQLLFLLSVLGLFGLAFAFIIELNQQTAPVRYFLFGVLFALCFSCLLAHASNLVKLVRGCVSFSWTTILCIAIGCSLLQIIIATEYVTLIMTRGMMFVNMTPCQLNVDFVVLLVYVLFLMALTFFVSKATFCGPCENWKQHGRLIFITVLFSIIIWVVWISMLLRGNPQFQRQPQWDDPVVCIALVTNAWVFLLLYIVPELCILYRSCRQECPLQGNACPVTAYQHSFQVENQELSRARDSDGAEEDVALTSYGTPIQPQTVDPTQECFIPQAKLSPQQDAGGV
# method: FACS, CHO-K1/human GPRC5D, hybridoma supernatant
Output spec: single numeric token, no unit.

>  <binder>
14C2A11C6 (antibody, V domains shown, murine antibody from hybridoma supernatant; also called 14C2A1106) VH: QVHLQQSGAELARPGASVKMSCKASGYTFTTYTMHWVKQRPGQGLEWIGYINPNSAYTNYNQKFKDKATLTADKSSSTAYMQLSSLTSEDSAVYYCARRVLLLRVLDFFDYWGQGTTLTVSS VL: DVQITQSPSYLAASPGETITINCRASKSINKYLTWYQEKPGKTNKLLIYSGSTLQSGIPSRFSGSGSGSDFTLTISSLEPEDFAMYYCQQHNEYPLTFGTGTKLELK

>  <Span>
723000

$$$$
>  <binder>
14F3H2 (antibody, V domains shown, murine antibody from hybridoma supernatant) VH: EVQLQQSGPELVKPGASMKISCKASGYSFTGYTMNWVKQSHGKNLEWIGLINPYNGGIRYNQKFKGKATLTVDKSSSTAYMELLSLTSEDSAVYYCARWGLRRAMDYWGQGTSVTVSS VL: DIVMTQSQKFMSTSVGDRVSVTCKASQNVGTNVAWYQQKPGQSPKALIYSASYRYSGVPDRFTGSGSGTDFTLTISNVQSEDLAEYFCQQYNSSPWTFGGGTKLEIK

>  <Span>
852000

$$$$

Item 26E1D12 (antibody, V domains shown, murine antibody from hybridoma supernatant) VH: EVQLQQSGPELVKPGASMKISCKASGYSFTGYTMNWVKQSHGKNLEWIGLINPYNGGTNYNQKFKGKATLAVDKSSSTAYMDLLSLTSEDSAVYYCSRWGLRRAMDYWGQGTSVTVSS VL: DIVMTQSQKFMSTSVGDRVSVTCKASQNVGSNVAWYQQKPGQSPKALIYSASYRYSGVPDRFTGSGSGTDFTLTISNVQSEDLAEYFCQQYNNSPWTFGGGTKLEIK : provide Span 625000

Data credit: patent US12281162
